The reported measurements were obtained from patent US20140154255A1.

Kd by entry:
studyTarget: T1, human VEGF-A residues 27-191 of Accession #AAV38412 (human, UniProt P15692 27-191)
T1 construct: range 27-191
T1 sequence (P15692 other isoform, or with tags, fused parts or gaps limits assumed): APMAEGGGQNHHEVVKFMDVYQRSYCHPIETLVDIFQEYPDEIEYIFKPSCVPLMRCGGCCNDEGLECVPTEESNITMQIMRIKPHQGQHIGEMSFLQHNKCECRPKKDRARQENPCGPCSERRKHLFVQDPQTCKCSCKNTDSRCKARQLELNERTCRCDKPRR
assayNotes: BIAcore SPR
API: value field is a number in nM; no unit string.

92 (antibody, human IgG1, V domains shown) VH: EVQLVESGGGLVQPGGSLRLSCAASGYTFTNYGMNWVRQAPGKGLEWVGWINTYTGEPTYAADFKRRFTFSLDTSKSTAYLQMNSLRAEDTAVYYCAKYPPYYGSSHWYFDVWGQGTLVTVSS VL: DIQMTQSPSSLSASVGDRVTITCSASQDISNYLNWYQQKPGKAPKVLIYFTSSLHSGVPSRFSGSGSGTDFTLTISSLQPEDFATYYCQQYSTVPWTFGQGTKVEIKR; 0.522
T28 Y (anti-VEGF IgG) (antibody, V domains shown, copies: 2 + 2) VH: EVQLVESGGGLVQPGGSLRLSCAASGYYFTNYGMNWVRQAPGKGLEWVGWINTYTGEPTYAADFKRRFTFSLDTSKSTAYLQMNSLRAEDTAVYYCAKYPHYYGSSHWYFDVWGQGTLVTVSS VL: DIQMTQSPSSLSASVGDRVTITCSASQDISNYLNWYQQKPGKAPKVLIYFTSSLHSGVPSRFSGSGSGTDFTLTISSLQPEDFATYYCQQYSTVPWTFGQGTKVEIK; 0.52

# next binder below
Could you share which Kd value was measured for T30 R (anti-VEGF IgG) (antibody, V domains shown, copies: 2 + 2) VH: EVQLVESGGGLVQPGGSLRLSCAASGYTFRNYGMNWVRQAPGKGLEWVGWINTYTGEPTYAADFKRRFTFSLDTSKSTAYLQMNSLRAEDTAVYYCAKYPHYYGSSHWYFDVWGQGTLVTVSS VL: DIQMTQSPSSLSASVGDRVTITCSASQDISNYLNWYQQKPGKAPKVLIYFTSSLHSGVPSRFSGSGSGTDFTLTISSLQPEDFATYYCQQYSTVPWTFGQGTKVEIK ?
0.644
